meta.source: a melting point compilation (Tetko et al.; mined from patent text by program, amines drawn as free bases though some values may be those of a salt)

quantity kind: melting point

Recorded results for 3 molecules are shown here.
O=C(C[C@@H](CCc1ccccc1)C(=O)O)OCC(Cl)(Cl)Cl
59 to 61 °C
Ic1nnnn1-c1ccccc1
123 to 129 °C
COC(=O)C1=Cc2cc(OCc3ccc(Cl)cc3)ccc2S(=O)(=O)CC1
130 to 133 °C

Exercise: Reported melting point, molecule O=CNC1=NN(c2ccc(Cl)cc2)C(c2ccccc2)C1 (stereo unspecified) : ____
Key: 164 to 166 °C

Exercise: Consider next the molecule COc1cccc(NC(=O)c2ccn3c2CSC3c2cccnc2)n1 (stereo unspecified) in the same way.
Key: 154 °C

Exercise: Consider next the molecule O=C1c2cc3c(cc2CCC1Br)OCC3 (stereo unspecified) in the same way.
Key: 106 °C

* * *

Measured melting point, listed per entry for reference.
Field: numeric (°C). Do not append units.

Recorded results for 2 compounds are shown here.
CN(C)C=Nc1nc2c(nnn2C2CC(O)C(CO)O2)c(=O)[nH]1 (stereo not given)
236
Cc1cc(Cc2cc(C(C)(C)C)cc(C(C)(C)C)c2O)c(O)c(-n2nc3ccccc3n2)c1
171

Now for the compound whose melting point we want.
Exercise: Reported melting point, compound CCCCCCCCOc1ccc(-c2cnc(-c3ccc(OCc4ccccc4)c(F)c3F)nc2)cn1 : ____
Key: 120

* * *

quantity kind: melting point

Recorded results for 3 compounds are shown here.
CN(C)CC(=O)N1Cc2cccc3c2N(CC3)c2ccccc21
104 to 107 °C
CCOC(=O)CCn1c(=O)c(=O)[nH]c2cc(C(F)(F)F)c(-n3c(C)ccc3C)cc21
233 to 235 °C
O=C(C#Cc1ccc(CCN2CCCC2)cc1)Nc1ccc(Cl)cc1
153 to 154 °C

Exercise: Reported melting point, compound CC(C)(C)NCCCOc1ccccc1Cc1cccc2[nH]ccc12 : ____
Key: 96 °C

Exercise: Consider next the compound CC(=O)N[C@@H]1C(O)O[C@H](COC(C)=O)[C@@H](O)[C@@H]1O (stereo not given in full) in the same way.
Key: 47 to 51 °C

* * *

Measured melting point, listed per entry for reference.
Field: numeric (°C). Do not append units.

O=C(NC1Cc2ccc(-c3ccc(F)cc3)cc2C1)c1ccc(F)cc1 (centres undefined)
193
CCCCCCCCCCOc1cc(OCCCCCCCCCC)cc(N2CC(=O)OC(=O)C2)c1
62
CC(=O)c1cc2c(c(C(=O)O)c1)NCCC2
229

Exercise: Reported melting point, molecule CCOC(=O)c1[nH]nnc1Nc1ccc(Cl)cc1 : ____
Key: 161

* * *

Measured melting point, listed per entry for reference.
Field: numeric (°C). Do not append units.

Recorded results for 3 compounds are shown here.
Cn1nnnc1CO/N=C(\C(=O)O)c1csc(N)n1
185
CC(C)(C)OC(=O)N1C(Cc2ccccc2)SC[C@H]1C(=O)O (stereo not given in full)
156
CC(C)Cc1cc(C(=O)NCCc2ccncc2)ccc1OCc1ccc(F)cc1
112

Now for the compound whose melting point we want.
Exercise: Reported melting point, compound O=C(c1ccc(F)cc1)C1CCN(CCCn2c(=S)[nH]c3ccccc3c2=O)CC1 : ____
Key: 200

* * *

quantity kind: melting point

Recorded results for 5 compounds are shown here.
CCC1(CO)COCOC1
95 to 102 °C
OC[C@H]1O[C@H]1c1ccsc1 (racemic)
63 to 65 °C
CC(C)CCOC(=O)c1cc2c([nH]c3ccccc32)c(-c2ccc3c(n2)C(=O)C(NC(=O)CCl)=CC3=O)n1
280 to 284 °C
CC1c2ccccc2NC(=O)N1CCCl (stereo unspecified)
126 °C
CC(C)(C)OC(=O)N1CCC[C@H]1COc1cccc2[nH]ccc12
40 to 41 °C

Exercise: Reported melting point, compound CCCCCCCN(CC)C(=O)Cc1ccc(N)cc1 : ____
Key: 172 to 174 °C

Exercise: Consider next the compound CC1(C)OC(=O)Nc2ccc(-c3ccc(S(N)(=O)=O)s3)cc21 in the same way.
Key: 258 to 260 °C

Exercise: Consider next the compound CCCCc1ncc(/C=C(\Cc2cccs2)C(=O)O)n1Cc1ccc([N+](=O)[O-])cc1 in the same way.
Key: 198 to 200 °C

Exercise: Consider next the compound O=C1C(=Cc2ccccc2)CS(=O)CC1=Cc1ccccc1 (stereo unspecified) in the same way.
Key: 155 to 160 °C

* * *

Measured melting point, listed per entry for reference.

Exercise: Reported melting point, molecule Cc1oc(-c2ccccc2)nc1COc1ccc(OCc2oc(-c3ccccc3)nc2C=O)cc1 : ____
Key: 127 to 128 °C

Exercise: Consider next the molecule O=c1[nH]c2ncc(-c3ccncc3)nc2n1CC1CCCCC1 in the same way.
Key: 267 to 269 °C

Exercise: Consider next the molecule Cc1nc(N2CCN(Cc3ccccc3)C2=O)sc1C(=O)NCc1cc(F)ccc1F in the same way.
Key: 176 to 177 °C

Exercise: Consider next the molecule O=P(Oc1ccc(Oc2ccccc2)cc1)(Oc1ccc(Oc2ccccc2)cc1)c1ccccc1 in the same way.
Key: 92 to 93 °C

* * *

Measured melting point, listed per entry for reference.

Recorded results for 4 molecules are shown here.
COC(=O)C1CN(C(=O)c2cc(OC)c(OC)c(OC)c2)CCN1 (stereo not given)
113 to 114 °C
Cc1nn(C)c2nc(N(CC3CC3)C(=O)C3CC3)c(CN(Cc3cc(C(F)(F)F)cc(C(F)(F)F)c3)c3nnn(C)n3)cc12
120 to 122 °C
Cc1cnc(CNC(=O)c2ccnc(N3CCN(Cc4ccc(F)cc4)C3=O)c2)cn1
169 to 171 °C
CCCCCCCCCCCCCC(C)S(=O)(=O)NC(=O)Nc1c(C(C)C)cccc1C(C)C (stereo not given)
65 to 75 °C

Exercise: Reported melting point, molecule CC(=O)OCCOCn1c(=O)sc2c(=O)[nH]c(N)nc21 : ____
Key: 173 to 176 °C

Exercise: Consider next the molecule O=Cc1ccc2c(c1)ncn2-c1cccc(Br)c1 in the same way.
Key: 179 to 181 °C

Exercise: Consider next the molecule COC(=O)CNC(=O)c1ccc(I)cc1 in the same way.
Key: 166 to 168 °C

Exercise: Consider next the molecule CCC(OC(C)=O)C(C)[N+](=O)[O-] (stereo not given) in the same way.
Key: 73 to 75 °C

Exercise: Consider next the molecule COc1cccc2c(=O)n(/C=C/C(=O)O)cnc12 in the same way.
Key: 289 to 291 °C

Exercise: Consider next the molecule O=C(c1ccc(F)cc1)C1CCN(CCCn2c(=O)[nH]c3cc(Cl)c(Cl)cc32)CC1 in the same way.
Key: 198 to 202 °C

Exercise: Consider next the molecule CCCc1c(OCCCCCC(=O)c2ccc(OC)c(OC)c2)ccc(C(=O)O)c1O in the same way.
Key: 114 to 117 °C

Exercise: Consider next the molecule C=CCNc1nc(NCCC)c2cc([N+](=O)[O-])ccc2n1 in the same way.
Key: 211 to 212 °C

Exercise: Consider next the molecule CCN(CC)C(=O)c1ccc(C)c(-c2nc(N(C)CCCN(C)C)nc3c2CNC(=O)N3c2c(F)cccc2F)c1 in the same way.
Key: 106 to 108 °C

Exercise: Consider next the molecule CC1(C)[C@H](Cc2noc(C3CCCCC3)n2)CC[C@]1(C)NCC(=O)N1C[C@@H](F)C[C@H]1C#N in the same way.
Key: 152 to 153 °C

Exercise: Consider next the molecule CCC(C)(O)CCCCc1cccc(CCc2ccc(O)c(CO)c2)c1 (stereo not given) in the same way.
Key: 101 to 104 °C

Exercise: Consider next the molecule Cc1ccc(S(=O)(=O)Cc2c(C(=O)O)nn(-c3ccccc3)c2O)cc1 in the same way.
Key: 228 °C

Exercise: Consider next the molecule CCOC(=O)CCNC(=O)Oc1c(C)n(C)ccc1=O in the same way.
Key: 171 to 173 °C

Exercise: Consider next the molecule Cc1ccc(-c2nc(N)n3nc(-c4ccco4)nc3n2)cc1 in the same way.
Key: > 275 °C

Exercise: Consider next the molecule CS(=O)(=O)Nc1c(C(=O)c2cccc(Cl)c2)[nH]c2ccc(Cl)cc12 in the same way.
Key: 220 to 221 °C

Exercise: Consider next the molecule CC(=O)c1cccc2c1Oc1c(C(C)=O)cccc1N2[Si](C)(C)C(C)(C)C in the same way.
Key: 146 °C

* * *

quantity kind: melting point

Recorded results for 3 molecules are shown here.
CC(=O)C=CS(=O)(=O)N1C=C(Cl)C=NC1
95 °C
CCCN1CCN(c2cc3ccccc3c(=O)[nH]2)CC1CO (stereo unspecified)
152 to 154 °C
COc1nc(C)nc(NC(=O)NS(=O)(=O)c2cccc3c2nnn3C)n1
134 to 136 °C

Exercise: Reported melting point, molecule COC(=O)[C@@H]1[C@@H](C(=O)O)[C@H]2C=C[C@@H]1C2 : ____
Key: 78 to 79 °C

Exercise: Consider next the molecule CC1(C)COc2c1cc(C=O)c(O)c2Br in the same way.
Key: 152 to 154 °C
